Values from patent US7662825B2

MEASURED ATTRIBUTE: melting point

Below, each entry is followed by its recorded melting point result.
- COMPOUND: "O=S(=O)(Nc1ncc(Cl)nc1OCc1cncnc1)c1cccc(Cl)c1Cl"
  melting point: "205 to 206 °C"
- COMPOUND: "COc1nc(Br)c(Cl)nc1NS(=O)(=O)c1cccc(Cl)c1Cl"
  melting point: "177 to 178 °C"
- COMPOUND: "O=S(=O)(Nc1ncc(Cl)nc1OCc1cncc(Br)c1)c1cccc(Cl)c1Cl"
  melting point: "199 to 201 °C"
- COMPOUND: "COc1nccnc1NS(=O)(=O)c1ccc(F)c(Cl)c1Cl"
  melting point: "192 to 194 °C"
- COMPOUND: "COc1nc(C(F)F)cnc1NS(=O)(=O)c1cccc(Cl)c1Cl"
  melting point: "117 to 118 °C"

I would be grateful if you could provide melting point for each of the following entries.
1. COc1nc(Br)cnc1NS(=O)(=O)c1ccccc1OC(F)(F)F
2. COc1nc(OC)c(NS(=O)(=O)c2cccc(Cl)c2Cl)nc1Cl
3. O=S(=O)(Nc1ncc(Cl)nc1OCc1cccnc1)c1cccc(Cl)c1Cl
4. COc1nc(C)cnc1NS(=O)(=O)c1ccc(Cl)c(Cl)c1
5. COC(=O)CSc1cnc(NS(=O)(=O)c2cccc(Cl)c2Cl)c(OC)n1
6. O=S(=O)(Nc1ncc(Cl)nc1OCc1cccc(CO)n1)c1cccc(Cl)c1Cl
7. COc1nc(SCCN)c(Cl)nc1NS(=O)(=O)c1cccc(Cl)c1Cl

Response line:
1: 156 to 157 °C; 2: 163 to 165 °C; 3: 200 to 204 °C; 4: 148 to 149 °C; 5: 152 to 153 °C; 6: 220 °C; 7: 185 to 190 °C

I would be grateful if you could provide melting point for each of the following entries.
1. COc1nc(Cl)cnc1NS(=O)(=O)c1cccc(Cl)c1
2. O=C(O)c1cccc(COc2nc(Cl)cnc2NS(=O)(=O)c2cccc(Cl)c2Cl)c1
3. Cc1cccc(COc2nc(Cl)cnc2NS(=O)(=O)c2cccc(Cl)c2Cl)n1
4. COc1nc(C)cnc1NS(=O)(=O)c1cccc(Cl)c1C
5. COc1ncc(Cl)nc1NS(=O)(=O)c1cccc(Cl)c1
6. CNCc1ccc(COc2nccnc2NS(=O)(=O)c2cccc(Cl)c2Cl)o1

Response line:
129 to 130 °C
218 to 224 °C (dec.)
158 to 159 °C
133 to 135 °C
126 to 127 °C
198 to 199 °C

Prompt line: Please report the recorded melting point for `Cc1ncccc1COc1nc(Cl)cnc1NS(=O)(=O)c1cccc(Cl)c1Cl` .
Response line: 214 to 216 °C (dec.)
